# TGT: GMDS (GDP-mannose 4,6-dehydratase) (Homo sapiens, UniProt O60547)
# Construct: recombinant human GMDS with a His-tag (Addgene plasmid # 39152)
# Sequence (O60547 2-372): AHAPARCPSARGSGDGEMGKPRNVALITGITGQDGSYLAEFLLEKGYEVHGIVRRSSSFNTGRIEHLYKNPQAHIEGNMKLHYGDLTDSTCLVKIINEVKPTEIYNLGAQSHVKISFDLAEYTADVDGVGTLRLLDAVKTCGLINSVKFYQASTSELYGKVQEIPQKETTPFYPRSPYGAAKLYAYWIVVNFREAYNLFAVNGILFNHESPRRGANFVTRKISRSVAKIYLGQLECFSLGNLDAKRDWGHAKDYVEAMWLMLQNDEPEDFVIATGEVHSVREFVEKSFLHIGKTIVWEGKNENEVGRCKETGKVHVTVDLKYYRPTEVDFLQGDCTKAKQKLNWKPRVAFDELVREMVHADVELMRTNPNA
# RUN DESCRIPTION: LC-MS and 1H NMR assay of GDP-mannose conversion by recombinant GMDS ([…] enzyme, […] GDP-mannose)
pIC50: −log10 of the molar value.

{"MOLECULE": "Nc1nc2c(ncn2[C@@H]2O[C@H](COP(=O)(O)OP(=O)(O)O[C@H]3O[C@H](C(F)F)[C@@H](O)[C@H](O)[C@@H]3O)[C@@H](O)[C@H]2O)c(=O)[nH]1 [compound 25, GDP-D-Rha6F2]", "TGT": "GMDS (GDP-mannose 4,6-dehydratase) (Homo sapiens, UniProt O60547)", "pIC50": 3.64}
